- measured on: Left-right determination factor 2 (Homo sapiens) (UniProt O00292)
- Sequence (O00292 whole entry, looked up): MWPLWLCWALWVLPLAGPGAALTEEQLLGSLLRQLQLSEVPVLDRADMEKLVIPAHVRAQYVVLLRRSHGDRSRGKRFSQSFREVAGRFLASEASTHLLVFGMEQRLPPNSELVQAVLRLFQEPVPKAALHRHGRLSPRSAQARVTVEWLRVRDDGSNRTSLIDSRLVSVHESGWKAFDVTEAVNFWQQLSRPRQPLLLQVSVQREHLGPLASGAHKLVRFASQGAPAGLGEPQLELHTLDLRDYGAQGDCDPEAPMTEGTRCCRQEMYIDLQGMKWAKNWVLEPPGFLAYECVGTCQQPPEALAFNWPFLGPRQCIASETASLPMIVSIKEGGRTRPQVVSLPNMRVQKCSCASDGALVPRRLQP
- assay protocol: LEFTY2 binders on small-molecule microarrays, primary screen, biochemical, small-molecule microarray, 635 nm fluorescence scan (AID 1110)
- setup conditions: LEFTY2 binding, higher = more signal
experimental readout: composite z-score

INSERT INTO assay_data (compound, experimental_readout, value_observed) VALUES
  ('COCCCNC(=O)[C@@]1(CCC(=O)OC(C)(C)C)N=C(c2ccc(OCCCO)cc2)O[C@H]1c1ccccc1CN=[N+]=[N-]', 'composite z-score', -0.139),
  ('O=C(CS)NCCCCCCNC(=O)[C@@H]1C[C@@H]2C(=O)N3CCC[C@H]3C(=O)N2[C@@H]1c1ccc(O)cc1', 'composite z-score', -0.793),
  ('O=C1OCC=C[C@H]2OC34C=CCN(c5ccc(Cl)cc5)C(=O)[C@H]3N(CCCCCCO)C(=O)[C@@H]4[C@@H]12 (some centres not stated)', 'composite z-score', -1.21),
  ('CCOC(=O)C[C@H]1[C@H](OC(=O)c2ccc(C(=O)c3ccccc3)cc2)[C@@H](NC(=O)C2CCCCC2)c2cc(OCCCO)ccc2N1C(=O)c1ccccc1', 'composite z-score', 0.239),
  ('COC(=O)[C@@]1(Cc2ccccc2)[C@H]2c3cc(C(=O)N4CCCC4)n(Cc4ccc(C)o4)c3C[C@H]2CN1C(=O)c1ccccc1', 'composite z-score', -0.334),
  ('CN(C)C(=O)[C@@]1(CCC(=O)OC(C)(C)C)N=C(c2ccc(OCCCO)cc2)O[C@H]1c1ccccc1', 'composite z-score', -0.964),
  ('[N-]=[N+]=Nc1ccccc1[C@@H]1OC(c2ccc(OCCCO)cc2)=N[C@]1(CCS(=O)(=O)c1ccccc1)C(=O)N1CCOCC1', 'composite z-score', 0.647);

###

- System: Wnt5a (protein binding on small-molecule microarray)
- assay protocol: Wnt5a binders on small-molecule microarray, primary screen, biophysical, 635/667 nm fluorescence (AID 1142);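 note: fluorescence read at 667 nm with signal to noise per printed feature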
- setup conditions: 635 nm fluorescence, higher = more signal
Quick list: composite z-score per entry.
experimental readout: composite z-score

INSERT INTO results (compound, measured_on, experimental_readout, value_observed) VALUES
  ('O=C1N(CCS(=O)(=O)c2ccccc2)Cc2ccccc2C[C@]12N=C(c1ccc(OCCCO)cc1)O[C@@H]2c1ccccc1', 'Wnt5a (protein binding on small-molecule microarray)', 'composite z-score', 0.775),
  ('COc1ccc(NN2C(C(O)c3ccc(OC)c(OCc4ccccc4)c3)C=CC3C(=O)N(C4CCCCC4)C(=O)C32)cc1 (centres undefined)', 'Wnt5a (protein binding on small-molecule microarray)', 'composite z-score', 0.285),
  ('CC(C)CNC(=O)[C@@]1(c2ccc([N+](=O)[O-])cc2)CC(=O)N(CC23CC4CC(CC(C4)C2)C3)[C@@H]1c1ccc(CO)cc1I', 'Wnt5a (protein binding on small-molecule microarray)', 'composite z-score', 0.777),
  ('COCCCNC(=O)[C@@]1(C)c2ccccc2C(=O)N(Cc2cc(C(F)(F)F)cc(C(F)(F)F)c2)[C@H]1c1ccc(CO)cc1', 'Wnt5a (protein binding on small-molecule microarray)', 'composite z-score', -0.676);

###

- assay protocol: FRG1 promoter luciferase signal modulators, primary screen, FRG1 inhibition for FSHD, cell-based, C2C12 myotubes, firefly/Renilla luciferase, luminescence (AID 1084)
- setup conditions: higher = more signal, called active from +8 up or from −8 down
experimental readout: z-score

INSERT INTO assay_data (molecule, experimental_readout, value_observed) VALUES
  ('O=C1OCC=C[C@H]2OC34C=CCN(c5ccc(Cl)cc5)C(=O)[C@H]3N(CCCCCCO)C(=O)[C@@H]4[C@@H]12 (stereo not given in full)', 'z-score', 1.16),
  ('CC(C)N1C(=O)c2ccccc2[C@@H](C(=O)NCCCN(C)C)[C@@H]1c1ccc(CO)cc1', 'z-score', 0.0159),
  ('COc1c(C)cc(-c2cc3c(c(-c4ccc(Oc5ccccc5)cc4)n2)[Si](C(C)C)(C(C)C)OC3)cc1C', 'z-score', 0.643),
  ('CCOC(=O)C1=CC[C@@H](c2ccccc2)N(S(=O)(=O)c2ccc(C)cc2)[C@H]1C(=O)OCC', 'z-score', -2.4),
  ('COCCOC(=O)N1C(=O)[C@@]2(c3cc(C#CCNC(N)=O)ccc31)[C@H](C(=O)N1CCc3cc(OC)c(OC)cc3C1)[C@H]1C(=O)O[C@H](c3ccccc3)[C@H](c3ccccc3)N1[C@@H]2c1ccc(OCCO)cc1', 'z-score', 0.363),
  ('COCCOC(=O)N1C(=O)[C@@]2(c3cc(C#CCCO)ccc31)[C@H](c1ccc(O)cc1)N1[C@H](c3ccccc3)[C@H](c3ccccc3)OC(=O)[C@H]1[C@@H]2C(N)=O', 'z-score', -0.966),
  ('[N-]=[N+]=Nc1ccccc1[C@@H]1OC(c2ccc(OCCCO)cc2)=N[C@]1(CCS(=O)(=O)c1ccccc1)C(=O)N1CCOCC1', 'z-score', -0.246),
  ('CN1C(=O)C2C(C1=O)C1C=C(CCCO)C2C(c2cccs2)N1C (stereo not given)', 'z-score', 0.22),
  ('[N-]=[N+]=NCc1ccccc1C[C@]1(C(=O)NCCN2CCOCC2)N=C(c2ccc(OCCCO)cc2)O[C@H]1c1ccccc1N=[N+]=[N-]', 'z-score', -0.653),
  ('C=CC[C@]1(C(=O)N2CCOCC2)N=C(c2ccc(OCCCO)cc2)O[C@H]1c1ccccc1', 'z-score', 0.54),
  ('CCOC(=O)C[C@H]1[C@H](OC(=O)Cc2ccc3c(c2)OCO3)[C@@H](NC(=O)c2ccc(-c3ccccc3)cc2)c2cc(OCCCO)ccc2N1C(=O)c1ccccc1', 'z-score', -3.42),
  ('Cc1cc(C)cc(N2C(=O)CS(=O)(=O)C2c2cccc([N+](=O)[O-])c2)c1 (stereo not given)', 'z-score', -1.47),
  ('O=C(CS)NCCCCCCNC(=O)[C@H]1C[C@H]2C(=O)N3CCC[C@H]3C(=O)N2[C@H]1c1cccc(OCCO)c1', 'z-score', 0.865),
  ('O=C(CCN1CCOCC1)c1cccc(O)c1', 'z-score', -1.28),
  ('CCN(CC)c1ccc(N2CC=CC34O[C@@H]5/C=C\CCCOC(=O)C5[C@H]3C(=O)N(C(CO)C(C)C)[C@@H]4C2=O)cc1 (stereo not given in full)', 'z-score', 0.455);
